Test system: NCI-H226 lung
Assay: NCI-60 one-dose screen, 48 h (100 = growth as untreated, 0 = no growth, -100 = all killed)
Conditions: 10 µM unless noted
About 83,000 compounds went through this panel and 20% of them were active in at least one assay; those are over-represented in the sample as a whole.
endpoint_label: growth (%)
One number for each entry, in %.

C#CCOC(=O)C(N)CSSCC(N)C(=O)O (stereo not drawn)    112
Cn1cc(-c2nc(-c3c[nH]c4ccncc34)cs2)c2cc(F)ccc21    57.9
C#CCOc1ccc(C2=NN(C)C3N=C(Cl)c4ncn(C)c4N23)cc1OCC#C (stereo not drawn)    83.4
COc1ccc(/C(C)=C(\c2ccc(Cl)cc2)c2ccc(OCCCN(C)C)cc2)cc1    103
Cc1c(-c2cnc3ccc(Cl)cc3c2C(=O)O)nnn1-c1ccc(Cl)cc1    102
COc1cc2c(c(OC)c1OC)CCC(c1cccc(NC(=O)c3cccc(Cl)c3)c1)O2 (stereo not drawn)    79.8
COc1ccc(-c2ccc(-c3ccc(C(=N)N)nc3)s2)cc1    83.4
COc1ccc(/C=N\NC(=O)c2ccc3nc(-c4ccc(Cl)cc4)[nH]c3c2)cc1    73.8
CC(=O)O[C@H]1CC[C@@]2(C)C(=CC[C@@H]3[C@@H]2CC[C@]2(C)C(Cl)=C(c4nc5ccc(Cl)cn5c4NC(C)(C)C)C[C@@H]32)C1    92.3
COc1ccc(/C=C/C(=O)c2ccc(-n3cc(CN4CCN(c5cc6c(cc5F)c(=O)c(C(=O)O)cn6C5CC5)CC4)nn3)cc2)cc1    67.3

Below is a list of molecules. For each, state its recorded growth.
1. C=C(CNCCc1ccc(O)cc1)[C@@H]1CC[C@]2(CO)CC[C@]3(C)[C@H](CC[C@@H]4[C@@]5(C)CCC(N)C(C)(C)[C@@H]5CC[C@]43C)[C@@H]12 (stereo partly drawn)
2. Oc1ccc(C(c2ccc(O)cc2)c2ccc(Cl)cn2)cc1
3. N/C(=N\c1nc2ccccc2s1)NC(=O)Nc1ccccc1
4. Oc1cccc2c1NCCC2
5. C=CCOC(=O)C1=C(C)N(CC)C(=O)N(CC)C1c1c(Cl)n(C)c2ccccc12 (stereo not drawn)
6. CC1(C)C2=C(C(=O)N1Cc1ccccc1)C(c1ccco1)N(C(=O)C1CCC1)CCN2 (stereo not drawn)

1. 87.6
2. -31
3. 87.8
4. 32.8
5. 95.1
6. 116
